Assay: Oral pharmacokinetics in rat plasma and lung tissue
Type: in vivo
Details: 10 mg/kg PO, Plasma

Molecule	half-life
CC[C@H]1OC(=O)[C@H](C)C(=O)[C@H](C)[C@@H](O[C@@H]2O[C@H](C)C[C@H](N(C)C)[C@H]2O)[C@@]2(C)C[C@@H](C)/C(=N\C(C)=O)[C@H](C)[C@@H](OC/C(=N\OCc3ccc(-c4ccno4)nc3)CO2)[C@]1(C)O [Compound 4]	2.06 h

----------
Experiment: Tissue accumulation at the site of infection (plasma, skin, skin abscess)
Conditions: mouse, infected skin abscess, po, 50 mg/kg

Smiles record	Kp
CCC(=O)/N=C1\[C@H](C)C[C@@]2(C)OC/C(=N/OCc3ccc(-c4nc(N)cs4)cn3)CO[C@H]([C@H]1C)[C@](C)(O)[C@@H](CC)OC(=O)[C@@](C)(F)C(=O)[C@H](C)[C@H]2O[C@@H]1O[C@H](C)C[C@H](N(C)C)[C@H]1O	25.2

----------
Test: Oral pharmacokinetics in rat plasma and lung tissue
Type: in vivo
Conditions: 10 mg/kg PO, Plasma
Parameter measured: Cmax

Smiles record	Observed
CC[C@H]1OC(=O)[C@H](C)C(=O)[C@H](C)[C@@H](O[C@@H]2O[C@H](C)C[C@H](N(C)C)[C@H]2O)[C@@]2(C)C[C@@H](C)/C(=N\C(C)=O)[C@H](C)[C@@H](OC/C(=N\OCc3ccc(-c4ccno4)nc3)CO2)[C@]1(C)O	2540 ng/mL

----------
Test: Rat PK of amino acid prodrug after IV/PO administration
Format: in vivo
Settings: plasma, 10 mg/kg IV, prodrug itself measured
Parameter measured: Cmax (ng/mL)

Smiles record	Parameter measured	Observed
CCC(=O)/N=C1\[C@H](C)C[C@@]2(C)OC/C(=N/OCc3ccc(-c4nc(NC(=O)[C@@H](N)CC(C)C)cs4)cn3)CO[C@H]([C@H]1C)[C@](C)(O)[C@@H](CC)OC(=O)[C@@](C)(F)C(=O)[C@H](C)[C@H]2O[C@@H]1O[C@H](C)C[C@H](N(C)C)[C@H]1O	Cmax	310

----------
Tested on: H influenzae 33929
Test: MIC, H influenzae 33929
Assay type: cell-based, Haemophilus influenzae
Conditions: Table 6, related compounds of US 6878691
Parameter measured: H. influenzae 33929 (microbiological data)

Molecule	Observed
CCC1OC(=O)C(C)C(=O)C(C)C(OC2OC(C)CC(N(C)C)C2O)C2(C)CC(C)C(=NC(C)=O)C(C)C(OCC(=NOCc3ccc(-n4cncn4)cc3)CO2)C1(C)O (stereo not drawn)	16
CCC1OC(=O)C(C)C(=O)C(C)C(OC2OC(C)CC(N(C)C)C2O)C2(C)CC(C)C(=NC(C)=O)C(C)C(OCC(=NOCc3ccc(-c4ncccn4)cc3)CO2)C1(C)O (stereo not drawn)	8
CCC1OC(=O)C(C)C(=O)C(C)C(OC2OC(C)CC(N(C)C)C2O)C2(C)CC(C)C(=NC(C)=O)C(C)C(OCC(=NOCc3ccc(-c4nnc(N)s4)nc3)CO2)C1(C)O (stereo not drawn)	4
CCC1OC(=O)C(C)(F)C(=O)C(C)C(OC2OC(C)CC(N(C)C)C2O)C2(C)CC(C)C(=NC(C)=O)C(C)C(OCC(=NOCc3ccc(-n4cccn4)nc3)CO2)C1(C)O (stereo not drawn)	4
CCC1OC(=O)C(C)C(=O)C(C)C(OC2OC(C)CC(N(C)C)C2O)C2(C)CC(C)C(=NC(C)=O)C(C)C(OCC(=NOCc3ccc(-c4csnn4)cc3)CO2)C1(C)O (stereo not drawn)	8
CCC1OC(=O)C(C)C(=O)C(C)C(OC2OC(C)CC(N(C)C)C2O)C2(C)CC(C)C(=NC(C)=O)C(C)C(OCC(=NOCc3ccc(-c4cccnc4)s3)CO2)C1(C)O (stereo not drawn)	16
CCC1OC(=O)C(C)C(=O)C(C)C(OC2OC(C)CC(N(C)C)C2O)C2(C)CC(C)C(=NC(C)=O)C(C)C(OCC(=NOCc3ccc(-c4cccs4)nc3)CO2)C1(C)O (stereo not drawn)	4
CCC1OC(=O)C(C)(F)C(=O)C(C)C(OC2OC(C)CC(N(C)C)C2O)C2(C)CC(C)C(=NC(C)=O)C(C)C(OCC(=NOCc3ccc(-c4csnn4)cc3)CO2)C1(C)O (stereo not drawn)	4
CCC1OC(=O)C(C)C(=O)C(C)C(OC2OC(C)CC(N(C)C)C2O)C2(C)CC(C)C(=NC(C)=O)C(C)C(OCC(=NOCc3cnc(-n4cccn4)c(F)c3)CO2)C1(C)O (stereo not drawn)	8
CCC1OC(=O)C(C)C(=O)C(C)C(OC2OC(C)CC(N(C)C)C2O)C2(C)CC(C)C(=NC(C)=O)C(C)C(OCC(=NOCc3noc(-c4ccccc4)n3)CO2)C1(C)O (stereo not drawn)	8
CCC1OC(=O)C(C)C(=O)C(C)C(OC2OC(C)CC(N(C)C)C2O)C2(C)CC(C)C(=NC(C)=O)C(C)C(OCC(=NOCc3ccc(-c4nccs4)nc3)CO2)C1(C)O (stereo not drawn)	4
CCC1OC(=O)C(C)C(=O)C(C)C(OC2OC(C)CC(N(C)C)C2O)C2(C)CC(C)C(=NC(C)=O)C(C)C(OCC(=NOCc3cc(-c4cccnc4)no3)CO2)C1(C)O (stereo not drawn)	16
CCC1OC(=O)C(C)(F)C(=O)C(C)C(OC2OC(C)CC(N(C)C)C2O)C2(C)CC(C)C(=NC(C)=O)C(C)C(OCC(=NOCc3ccc(-c4cnccn4)s3)CO2)C1(C)O (stereo not drawn)	8
CCC1OC(=O)C(C)C(=O)C(C)C(OC2OC(C)CC(N(C)C)C2O)C2(C)CC(C)C(=NC(C)=O)C(C)C(OCC(=NOCc3ccc(-c4ccccn4)s3)CO2)C1(C)O (stereo not drawn)	16
CCC1OC(=O)C(C)C(=O)C(C)C(OC2OC(C)CC(N(C)C)C2O)C2(C)CC(C)C(=NC(C)=O)C(C)C(OCC(=NOCc3ccc(-c4cccc(N)n4)nc3)CO2)C1(C)O (stereo not drawn)	4
CCC1OC(=O)C(C)(F)C(=O)C(C)C(OC2OC(C)CC(N(C)C)C2O)C2(C)CC(C)C(=NC(C)=O)C(C)C(OCC(=NOCc3ccc(-c4ncccn4)s3)CO2)C1(C)O (stereo not drawn)	8
CCNC(=O)c1cccc(-c2cc(CON=C3COC4C(C)C(=NC(C)=O)C(C)CC(C)(OC3)C(OC3OC(C)CC(N(C)C)C3O)C(C)C(=O)C(C)C(=O)OC(CC)C4(C)O)on2)n1 (stereo not drawn)	32
CCC1OC(=O)C(C)(F)C(=O)C(C)C(OC2OC(C)CC(N(C)C)C2O)C2(C)CC(C)C(=NC(C)=O)C(C)C(OCC(=NOCc3ccc(-c4cccc(N)n4)s3)CO2)C1(C)O (stereo not drawn)	4
